Reference source for all entries: patent US11161856B2

- assayTarget: MAGL (Homo sapiens)
- Construct: Proteomes (human prefrontal cortex or cell membrane fractions); from tissue
- Sequence (Q99685 whole entry): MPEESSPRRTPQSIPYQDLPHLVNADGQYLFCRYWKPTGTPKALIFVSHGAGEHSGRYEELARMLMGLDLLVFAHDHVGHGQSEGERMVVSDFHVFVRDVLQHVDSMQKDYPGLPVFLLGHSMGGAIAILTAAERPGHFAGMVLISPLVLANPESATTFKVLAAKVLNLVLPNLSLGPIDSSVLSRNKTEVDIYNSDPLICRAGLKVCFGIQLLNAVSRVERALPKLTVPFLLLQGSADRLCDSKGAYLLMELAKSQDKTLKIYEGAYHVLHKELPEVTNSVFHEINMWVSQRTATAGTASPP
- assayName: In vitro competitive activity-based protein profiling (FP-Rh or HT-01 probe, gel-based)
- Format: biochemical
- experimentalContext: prefrontal cortex (PFC) proteome, read-out: IC50 MGLL PFC (Human)
pIC50: −log10 of the molar value.
measure: pIC50

Ask: Answer with reported pIC50 of O=C(O)C1CCCN1C1CCN(c2cc(C(F)(F)F)ccc2CN2CCCC23CCN(C(=O)OC(C(F)(F)F)C(F)(F)F)CC3)CC1 (stereo not shown)
Reply: > 7.00

* * *

- assayTarget: ABHD6 (Mus musculus, UniProt Q8R2Y0)
- Construct: Brain; from tissue; host or cells: mouse brain proteome
- Sequence (Q8R2Y0 whole entry): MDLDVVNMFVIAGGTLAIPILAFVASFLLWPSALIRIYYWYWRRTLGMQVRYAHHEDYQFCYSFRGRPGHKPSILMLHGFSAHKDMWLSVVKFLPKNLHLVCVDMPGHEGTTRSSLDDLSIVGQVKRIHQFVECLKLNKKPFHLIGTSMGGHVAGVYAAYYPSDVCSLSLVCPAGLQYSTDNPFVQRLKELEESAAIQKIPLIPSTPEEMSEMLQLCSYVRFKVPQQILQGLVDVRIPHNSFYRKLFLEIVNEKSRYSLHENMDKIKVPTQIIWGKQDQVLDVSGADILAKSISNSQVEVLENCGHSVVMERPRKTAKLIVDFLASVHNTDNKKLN
- assayName: In vitro competitive activity-based protein profiling, mouse brain proteome (ABHD6)
- Assay type: biochemical
- experimentalContext: mouse brain proteome; concentration not given (μM)
measure: % Inh ABHD6 Brain (Mouse, μM)

compound: O=C(OC(C(F)(F)F)C(F)(F)F)N1CC2(CCN(Cc3ccc(CN4CCOCC4)cc3)CC2)C1
result: ### (### is ≥75%)
--
compound: CN(Cc1cc(C(F)(F)F)cc(C2(C(=O)O)CCCC2)c1)C1(C)CCN(C(=O)OC(C(F)(F)F)C(F)(F)F)CC1
result: ### (### is ≥75%)
--
compound: O=C(OC(C(F)(F)F)C(F)(F)F)N1CCC2(CCN(Cc3ccc(C(F)(F)F)cc3N3CCC(F)CC3)CC2)C1
result: # (# is ≤25%)
--
compound: CC1(N(CC(=O)O)Cc2ccc(C(F)(F)F)cc2N2CCOCC2)CCN(C(=O)OC(C(F)(F)F)C(F)(F)F)CC1
result: # (# is ≤25%)
--
compound: CC(=O)N1CCC2(CCN(c3cc(Cl)ccc3CN3CCN(C(=O)OC(C(F)(F)F)C(F)(F)F)CC3)CC2)C1
result: # (# is ≤25%)

Ask: Give % Inh ABHD6 Brain (Mouse, μM); test system ABHD6 (Mus musculus, UniProt Q8R2Y0); compound O=C(OC(C(F)(F)F)C(F)(F)F)N1CCC2(CC1)CCN(C(=O)c1ccc(C(F)(F)F)c(Cl)c1)C2
Reply: ### (### is ≥75%)

Ask: Determine reported % Inh ABHD6 Brain (Mouse, μM) for O=C(OC(C(F)(F)F)C(F)(F)F)N1CCC2(CC1)CN(Cc1ccc(N3CCOCC3)cc1Cl)C2 ; test system: ABHD6 (Mus musculus, UniProt Q8R2Y0).
Reply: ### (### is ≥75%)

Ask: Quote % Inh ABHD6 Brain (Mouse, μM) with test system ABHD6 (Mus musculus, UniProt Q8R2Y0) for CN(Cc1cccc(F)c1C1(C(=O)O)CCCC1)C1(C)CCN(C(=O)OC(C(F)(F)F)C(F)(F)F)CC1
Reply: # (# is ≤25%)

Ask: Please tell me the measured % Inh ABHD6 Brain (Mouse, μM) for O=C(O)C1CN(c2cc(CN3CC4(CCN(C(=O)OC(C(F)(F)F)C(F)(F)F)CC4)C3)cc(C(F)(F)F)c2)CCO1 (stereo not shown) ; system: ABHD6 (Mus musculus, UniProt Q8R2Y0).
Reply: ### (### is ≥75%)

Ask: Find the measured % Inh ABHD6 Brain (Mouse, μM) of O=C(OC(C(F)(F)F)C(F)(F)F)N1CCC2(CC1)CN(Cc1ccc(N3CCCC3)cc1)C2 with ABHD6 (Mus musculus, UniProt Q8R2Y0) as test system.
Reply: # (# is ≤25%)

* * *

- assayTarget: ABHD6 (Mus musculus, UniProt Q8R2Y0)
- Construct: Brain; from tissue; host or cells: mouse brain proteome
- assayName: In vitro competitive activity-based protein profiling, mouse brain proteome (ABHD6)
- Type: biochemical
- experimentalContext: mouse brain proteome; concentration not given (μM)
measure: % Inh ABHD6 Brain (Mouse, μM)

compound: CC(=O)N1CCCc2cccc(CN3CCC4(CC3)CCN(C(=O)OC(C(F)(F)F)C(F)(F)F)C4)c21
assayTarget: ABHD6 (Mus musculus, UniProt Q8R2Y0)
measure: % Inh ABHD6 Brain (Mouse, μM)
result: # (# is ≤25%)
//
compound: O=C(O)C1CCN(c2c(Cl)cccc2CN2CCC3(CC2)CCN(C(=O)OC(C(F)(F)F)C(F)(F)F)C3)CC1
assayTarget: ABHD6 (Mus musculus, UniProt Q8R2Y0)
measure: % Inh ABHD6 Brain (Mouse, μM)
result: # (# is ≤25%)
//
compound: CC(=O)N1CCC2(CCN(c3cc(C(F)(F)F)ccc3CN3CCN(C(=O)OC(C(F)(F)F)C(F)(F)F)CC3)CC2)C1
assayTarget: ABHD6 (Mus musculus, UniProt Q8R2Y0)
measure: % Inh ABHD6 Brain (Mouse, μM)
result: # (# is ≤25%)
//
compound: CS(=O)(=O)N1CCC2(CCN(c3cc(Cl)ccc3CN3CCN(C(=O)OC(C(F)(F)F)C(F)(F)F)CC3)C2)CC1
assayTarget: ABHD6 (Mus musculus, UniProt Q8R2Y0)
measure: % Inh ABHD6 Brain (Mouse, μM)
result: # (# is ≤25%)
//
compound: O=C(OC(C(F)(F)F)C(F)(F)F)N1CCC2(CCN(Cc3ccc(C(F)(F)F)cc3N3CC4CCC(C3)O4)CC2)C1
assayTarget: ABHD6 (Mus musculus, UniProt Q8R2Y0)
measure: % Inh ABHD6 Brain (Mouse, μM)
result: # (# is ≤25%)

Ask: Give the value of % Inh ABHD6 Brain (Mouse, μM) reported for the following: O=C(O)C1CCCCN1c1cc(C(F)(F)F)ccc1CN1CC2(CCN(C(=O)OC(C(F)(F)F)C(F)(F)F)CC2)C1 (centres unmarked)
Reply: # (# is ≤25%)

* * *

- assayTarget: MGLL (Mus musculus, UniProt O35678)
- Construct: Brain; from tissue; host or cells: mouse brain proteome
- Sequence (O35678 whole entry): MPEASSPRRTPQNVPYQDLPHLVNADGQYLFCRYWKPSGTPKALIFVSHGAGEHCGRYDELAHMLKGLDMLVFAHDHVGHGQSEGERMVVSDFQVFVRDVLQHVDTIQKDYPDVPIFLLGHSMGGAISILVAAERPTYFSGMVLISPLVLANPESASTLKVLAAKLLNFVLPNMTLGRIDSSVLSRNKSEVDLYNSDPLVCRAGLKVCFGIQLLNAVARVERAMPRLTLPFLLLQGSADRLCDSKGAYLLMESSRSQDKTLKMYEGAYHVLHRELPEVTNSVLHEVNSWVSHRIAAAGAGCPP
- assayName: In vitro competitive activity-based protein profiling, mouse brain proteome (MGLL)
- Format: biochemical
- experimentalContext: concentration not given (μM)
measure: % Inh MGLL Brain (Mouse, μM)

Known results for compounds:
compound: O=C(OC(C(F)(F)F)C(F)(F)F)N1CCC2(CC1)CN(Cc1c(N3CCC(F)CC3)cccc1C(F)(F)F)C2 [Example 51]
% Inh MGLL Brain (Mouse, μM): ### (### is ≥75%)
//
compound: O=C(O)CN1CCC2(CCN(c3cc(C(F)(F)F)ccc3CN3CCCC34CCN(C(=O)OC(C(F)(F)F)C(F)(F)F)CC4)CC2)C1 [Example 153]
% Inh MGLL Brain (Mouse, μM): ### (### is ≥75%)
//
compound: CC(=O)N1CCN(c2cccc(C(F)(F)F)c2CN2CC3(CCN(C(=O)OC(C(F)(F)F)C(F)(F)F)CC3)C2)CC1 [Example 59]
% Inh MGLL Brain (Mouse, μM): ### (### is ≥75%)
//
compound: CN1CCCC12CCN(c1cc(Cl)ccc1CN1CCN(C(=O)OC(C(F)(F)F)C(F)(F)F)CC1)CC2 [Example 214]
% Inh MGLL Brain (Mouse, μM): ### (### is ≥75%)
//
compound: O=C(OC(C(F)(F)F)C(F)(F)F)N1CC2(CCN(Cc3ccc(Cl)cc3N3CCOCC3)CC2)C1 [Example 37]
% Inh MGLL Brain (Mouse, μM): ### (### is ≥75%)
//
compound: O=C(OC(C(F)(F)F)C(F)(F)F)N1CCC2(CC1)CN(Cc1ccc(N3CCCC3)cc1)C2 [Example 80]
% Inh MGLL Brain (Mouse, μM): ### (### is ≥75%)
//
compound: O=C(O)CN1CC2CN(c3cc(C(F)(F)F)ccc3CN3CCCC34CCN(C(=O)OC(C(F)(F)F)C(F)(F)F)CC4)CC2C1 (stereo not shown) [Example 155]
% Inh MGLL Brain (Mouse, μM): ### (### is ≥75%)
//
compound: O=C(OC(C(F)(F)F)C(F)(F)F)N1CCC2(CC1)CCN(C(=O)c1ccc(C(F)(F)F)c(Cl)c1)C2 [Example 109]
% Inh MGLL Brain (Mouse, μM): ### (### is ≥75%)

Ask: Provide % Inh MGLL Brain (Mouse, μM) value for the following compound: CS(=O)(=O)N1CCC2(CCN(c3cc(C(F)(F)F)ccc3CN3CCN(C(=O)OC(C(F)(F)F)C(F)(F)F)CC3)CC2)C1 [Example 185]
Reply: ### (### is ≥75%)

Ask: // fetch % Inh MGLL Brain (Mouse, μM) given entry O=C(OC(C(F)(F)F)C(F)(F)F)N1CCC2(CCN(Cc3ccc(Cl)cc3N3CCC(F)CC3)CC2)C1 [Example 28]
Reply: ### (### is ≥75%)

Ask: Specify reported % Inh MGLL Brain (Mouse, μM) for the compound shown: O=C(O)C1CCN(c2cc(CN3CC4(CCN(C(=O)OC(C(F)(F)F)C(F)(F)F)CC4)C3)cc(C(F)(F)F)c2)C1 (stereo not shown) [Example 104]
Reply: ### (### is ≥75%)
